# reported conditions: in 2-butanone, 308.15 K
measurement name: solubility (mole fraction)
Respond using a number only.

Query (compound): CCOc1ncc(C)c2c1[C@H](c1ccc(C#N)cc1OC)C(C(N)=O)=C(C)N2 ; field requested: solubility (mole fraction) 0.00542

---

# reported conditions: in isopropanol, 313.15 K
measurement name: solubility (mole fraction)
Respond using a number only.

Query (compound): CCOc1ncc(C)c2c1[C@H](c1ccc(C#N)cc1OC)C(C(N)=O)=C(C)N2 ; field requested: solubility (mole fraction) 0.00152

---

# reported conditions: in methanol, 293.15 K
measurement name: solubility (mole fraction)

Query (molecule): CCOc1ncc(C)c2c1[C@H](c1ccc(C#N)cc1OC)C(C(N)=O)=C(C)N2 ; field requested: solubility (mole fraction) 0.00515

---

# reported conditions: in methyl acetate, 278.15 K
measurement name: solubility (mole fraction)
Respond using a number only.

Query (compound): CCOc1ncc(C)c2c1[C@H](c1ccc(C#N)cc1OC)C(C(N)=O)=C(C)N2 ; field requested: solubility (mole fraction) 0.00136

---

# reported conditions: in methyl acetate, 288.15 K
measurement name: solubility (mole fraction)
Respond using a number only.

Query (compound): CCOc1ncc(C)c2c1[C@H](c1ccc(C#N)cc1OC)C(C(N)=O)=C(C)N2 ; field requested: solubility (mole fraction) 0.00166

---

# reported conditions: in acetone, 278.15 K
measurement name: solubility (mole fraction)
Respond using a number only.

Query (compound): CCOc1ncc(C)c2c1[C@H](c1ccc(C#N)cc1OC)C(C(N)=O)=C(C)N2 ; field requested: solubility (mole fraction) 0.00407

---

# reported conditions: in isopropanol, 278.15 K
measurement name: solubility (mole fraction)
Respond using a number only.

Query (molecule): CCOc1ncc(C)c2c1[C@H](c1ccc(C#N)cc1OC)C(C(N)=O)=C(C)N2 ; field requested: solubility (mole fraction) 0.000333

---

# reported conditions: in isopropanol, 303.15 K
measurement name: solubility (mole fraction)
Respond using a number only.

Query (compound): CCOc1ncc(C)c2c1[C@H](c1ccc(C#N)cc1OC)C(C(N)=O)=C(C)N2 ; field requested: solubility (mole fraction) 0.000984

---

# reported conditions: in acetonitrile, 298.15 K
measurement name: solubility (mole fraction)
Respond using a number only.

Query (compound): CCOc1ncc(C)c2c1[C@H](c1ccc(C#N)cc1OC)C(C(N)=O)=C(C)N2 ; field requested: solubility (mole fraction) 0.00166

---

# reported conditions: in methanol, 308.15 K
measurement name: solubility (mole fraction)
Respond using a number only.

Query (molecule): CCOc1ncc(C)c2c1[C@H](c1ccc(C#N)cc1OC)C(C(N)=O)=C(C)N2 ; field requested: solubility (mole fraction) 0.00638

---

# reported conditions: in acetonitrile, 278.15 K
measurement name: solubility (mole fraction)

Query (compound): CCOc1ncc(C)c2c1[C@H](c1ccc(C#N)cc1OC)C(C(N)=O)=C(C)N2 ; field requested: solubility (mole fraction) 0.000973

---

# reported conditions: in methyl acetate, 293.15 K
measurement name: solubility (mole fraction)
Respond using a number only.

Query (molecule): CCOc1ncc(C)c2c1[C@H](c1ccc(C#N)cc1OC)C(C(N)=O)=C(C)N2 ; field requested: solubility (mole fraction) 0.00182

---

# reported conditions: in acetonitrile, 293.15 K
measurement name: solubility (mole fraction)
Respond using a number only.

Query (molecule): CCOc1ncc(C)c2c1[C@H](c1ccc(C#N)cc1OC)C(C(N)=O)=C(C)N2 ; field requested: solubility (mole fraction) 0.00144
